Experiment: Cmax in rat at 5 mg/kg, po
Type: ADME, organism-based
Design: route oral, dose 5 mg/kg
Conditions: in vivo
Parameter measured: Cmax (µM)
Answers are plain numbers, in µM.

// batch mode: one Cmax value per listed entry
1. CC[C@@H]1C[C@H](C)CC/C=C\[C@@H]2C[C@@]2(C(=O)NS(=O)(=O)C2(C)CC2)NC(=O)[C@@H]2C[C@@H](Oc3nccc4cc(OC)c(F)cc34)CN2C(=O)[C@H]1NC(=O)OC(C)(C)C(F)(F)F
2. COc1cnc(O[C@@H]2C[C@H]3C(=O)N[C@]4(C(=O)NS(=O)(=O)C5(C)CC5)C[C@H]4/C=C\CC[C@@H](C)C[C@@H](C)[C@H](NC(=O)OC(C)(C)C(F)(F)F)C(=O)N3C2)c2ccccc12
3. CC[C@@H]1C[C@H](C)CC/C=C\[C@@H]2C[C@@]2(C(=O)NS(=O)(=O)C2(C)CC2)NC(=O)[C@@H]2C[C@@H](Oc3ncc(OC)c4ccc(F)cc34)CN2C(=O)[C@H]1NC(=O)OC(C)(C)C(F)(F)F
4. CC[C@@H]1C[C@H](C)CC/C=C\[C@@H]2C[C@@]2(C(=O)NS(=O)(=O)C2CC2)NC(=O)[C@@H]2C[C@@H](Oc3ncc(OC)c4ccccc34)CN2C(=O)[C@H]1NC(=O)OC(C)(C)C(F)(F)F
5. CC[C@@H]1C[C@H](C)CC/C=C\[C@@H]2C[C@@]2(C(=O)NS(=O)(=O)C2(C)CC2)NC(=O)[C@@H]2C[C@@H](Oc3ncc(OC)c4ccccc34)CN2C(=O)[C@H]1NC(=O)OC(C)(C)C(F)(F)F

(A)
1: 12.1; 2: 5.29; 3: 3.61; 4: 2.95; 5: 3.03

---

Test: Half life in rat at 5 mg/kg, iv
Type: ADME, organism-based
Conditions: in vivo
Parameter measured: half-life (h)
Give bare numbers, in h.

(Q) For COc1cnc(O[C@@H]2C[C@H]3C(=O)N[C@]4(C(=O)NS(=O)(=O)C5CC5)C[C@H]4/C=C\CC[C@@H](C)C[C@@H](C)[C@H](NC(=O)OC(C)(C)C(F)(F)F)C(=O)N3C2)c2ccccc12 , what is its reported half-life?
(A) 2.7

---

Assay: AUC (0 to 24 hrs) in rat at 5 mg/kg, po
Format: ADME, organism-based
Parameters: time < 24 hr, route oral, dose 5 mg/kg
Conditions: in vivo
Parameter measured: AUC(0-t) at 24 h (µM·h)
One number for each entry, in µM·h.

Consider the worked cases shown below.
INSERT INTO results (chemical_structure, unit_annotation, assay_value) VALUES
  ('CC[C@@H]1C[C@H](C)CC/C=C\[C@@H]2C[C@@]2(C(=O)NS(=O)(=O)C2CC2)NC(=O)[C@@H]2C[C@@H](Oc3ncc(OC)c4ccccc34)CN2C(=O)[C@H]1NC(=O)OC(C)(C)C(F)(F)F', 'µM·h', 18.8),
  ('COc1cnc(O[C@@H]2C[C@H]3C(=O)N[C@]4(C(=O)NS(=O)(=O)C5(C)CC5)C[C@H]4/C=C\CC[C@@H](C)C[C@@H](C)[C@H](NC(=O)OC(C)(C)C(F)(F)F)C(=O)N3C2)c2ccccc12', 'µM·h', 34.2),
  ('CC[C@@H]1C[C@H](C)CC/C=C\[C@@H]2C[C@@]2(C(=O)NS(=O)(=O)C2(C)CC2)NC(=O)[C@@H]2C[C@@H](Oc3ncc(OC)c4ccccc34)CN2C(=O)[C@H]1NC(=O)OC(C)(C)C(F)(F)F', 'µM·h', 22.5);

// batch mode: one AUC(0-t) at 24 h value per listed entry
1. CC[C@@H]1C[C@H](C)CC/C=C\[C@@H]2C[C@@]2(C(=O)NS(=O)(=O)C2(C)CC2)NC(=O)[C@@H]2C[C@@H](Oc3ncc(OC)c4ccc(F)cc34)CN2C(=O)[C@H]1NC(=O)OC(C)(C)C(F)(F)F
2. CC[C@@H]1C[C@H](C)CC/C=C\[C@@H]2C[C@@]2(C(=O)NS(=O)(=O)C2(C)CC2)NC(=O)[C@@H]2C[C@@H](Oc3nccc4cc(OC)c(F)cc34)CN2C(=O)[C@H]1NC(=O)OC(C)(C)C(F)(F)F

(A)
1. 32.5
2. 151

---

Assay: Oral bioavailability in rat at 5 mg/kg
Assay type: ADME, organism-based
Details: in vivo
Parameter measured: bioavailability (%)
Answers are plain numbers, in %.

Consider the worked cases shown below.
INSERT INTO results (chemical_structure, parameter_measured, unit_annotation, assay_value) VALUES
  ('C=C[C@@H]1C[C@]1(NC(=O)[C@@H]1C[C@@H](Oc2ncc(OC)c3ccc(Cl)cc23)CN1C(=O)[C@@H](NC(=O)OC(C)(C)C)C(C)(C)C)C(=O)NS(=O)(=O)C1CC1', 'bioavailability', '%', 14),
  ('CC[C@@H]1C[C@H](C)CC/C=C\[C@@H]2C[C@@]2(C(=O)NS(=O)(=O)C2(C)CC2)NC(=O)[C@@H]2C[C@@H](Oc3ncc(OC)c4ccc(F)cc34)CN2C(=O)[C@H]1NC(=O)OC(C)(C)C(F)(F)F', 'bioavailability', '%', 47);

Note: attention shifts to another entry.
(Q) For COc1cnc(O[C@@H]2C[C@H]3C(=O)N[C@]4(C(=O)NS(=O)(=O)C5(C)CC5)C[C@H]4/C=C\CC[C@@H](C)C[C@@H](C)[C@H](NC(=O)OC(C)(C)C(F)(F)F)C(=O)N3C2)c2ccccc12 , what is its reported bioavailability?
(A) 60

---

Assay: Inhibition of recombinant full length NS3/4A D168V mutant protease in Hepatitis C virus subtype 1b replicon infected in human HuH7 cells preincubated for 3 days followed by substrate addition and measured after 2 hrs by renilla luciferase reporter gene assay
Type: cell-based
Conditions: Huh-7
pEC50: −log10 of the molar value.
Label Satisfied when pEC50 is at or above 8; anything below gets Not satisfied.

Below, 5 compounds whose answers are already recorded.
INSERT INTO measurements (chemical_structure, classification) VALUES
  ('COc1cnc(O[C@@H]2C[C@H]3C(=O)N[C@]4(C(=O)NS(=O)(=O)C5CC5)C[C@H]4/C=C\CC[C@@H](C)C[C@@H](C)[C@H](NC(=O)OC(C)(C)C(F)(F)F)C(=O)N3C2)c2ccccc12', 'Satisfied'),
  ('COc1cnc(O[C@@H]2C[C@H]3C(=O)N[C@]4(C(=O)NS(=O)(=O)C5CC5)C[C@H]4/C=C\CCCC[C@@H](C)[C@H](NC(=O)OC(C)(C)C(F)(F)F)C(=O)N3C2)c2ccccc12', 'Not satisfied'),
  ('CC[C@@H]1C[C@H](C)CC/C=C\[C@@H]2C[C@@]2(C(=O)NS(=O)(=O)C2CC2)NC(=O)[C@@H]2C[C@@H](Oc3ncc(OC)c4ccccc34)CN2C(=O)[C@H]1NC(=O)OC(C)(C)C', 'Not satisfied'),
  ('COc1cnc(O[C@@H]2C[C@H]3C(=O)N[C@]4(C(=O)NS(=O)(=O)C5CC5)C[C@H]4/C=C\CC[C@@H](C)C[C@@H](C)[C@H](NC(=O)OC(C)(C)C)C(=O)N3C2)c2cc(Cl)ccc12', 'Satisfied'),
  ('[2H]C([2H])([2H])Oc1cnc(O[C@@H]2C[C@H]3C(=O)N[C@]4(C(=O)NS(=O)(=O)C5(C)CC5)C[C@H]4/C=C\CC[C@@H](C)C[C@@H](C)[C@H](NC(=O)OC(C)(C)C(F)(F)F)C(=O)N3C2)c2ccccc12', 'Satisfied');

Now for another entry.
(Q) Could you please find out whether COc1cnc(O[C@@H]2C[C@H]3C(=O)N[C@]4(C(=O)NS(=O)(=O)C5(C)CC5)C[C@H]4/C=C\CC[C@@H](C)C[C@@H](C)[C@H](NC(=O)OC(C)(C)C(F)(F)F)C(=O)N3C2)c2ccccc12 has pEC50 that meets 8 or exceeds it?
(A) Satisfied

---

Test: Drug concentration in rat plasma at 5 mg/kg, po measured upto 24 hrs
Format: ADME, organism-based
Settings: read-out: Ct
Parameter measured: concentration at 24 h (nM)
Numbers only, in nM.

Consider the worked cases shown below.
INSERT INTO assay_data (chemical_structure, parameter_measured, unit_annotation, assay_value) VALUES
  ('CC[C@@H]1C[C@H](C)CC/C=C\[C@@H]2C[C@@]2(C(=O)NS(=O)(=O)C2(C)CC2)NC(=O)[C@@H]2C[C@@H](Oc3ncc(OC)c4ccccc34)CN2C(=O)[C@H]1NC(=O)OC(C)(C)C(F)(F)F', 'concentration at 24 h', 'nM', 229),
  ('CC[C@@H]1C[C@H](C)CC/C=C\[C@@H]2C[C@@]2(C(=O)NS(=O)(=O)C2(C)CC2)NC(=O)[C@@H]2C[C@@H](Oc3nccc4cc(OC)c(F)cc34)CN2C(=O)[C@H]1NC(=O)OC(C)(C)C(F)(F)F', 'concentration at 24 h', 'nM', 3850),
  ('COc1cnc(O[C@@H]2C[C@H]3C(=O)N[C@]4(C(=O)NS(=O)(=O)C5(C)CC5)C[C@H]4/C=C\CC[C@@H](C)C[C@@H](C)[C@H](NC(=O)OC(C)(C)C(F)(F)F)C(=O)N3C2)c2ccccc12', 'concentration at 24 h', 'nM', 226);

Note: attention shifts to another entry.
(Q) For CC[C@@H]1C[C@H](C)CC/C=C\[C@@H]2C[C@@]2(C(=O)NS(=O)(=O)C2(C)CC2)NC(=O)[C@@H]2C[C@@H](Oc3ncc(OC)c4ccc(F)cc34)CN2C(=O)[C@H]1NC(=O)OC(C)(C)C(F)(F)F , what is its reported concentration at 24 h?
(A) 422
